Reported growth inhibition values are given for each entry in this list.
- ASSAY NAME: NCI Yeast Anticancer Drug Screen. Data for the wt2 strain (AID 169);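 note: 0% = growth of vehicle-treated yeast cultures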
- RUN CONDITIONS: S. cerevisiae wt2 strain growth inhibition; at 11.0 µM; active compounds read high
This is part of a sample that, as a whole, favours compounds with a hit. Of some 79,000 tested, about 15% had one in any assay. Active and inactive are the calls of the source. Cut-off read from the data, not from the text of the source: active = growth inhibition above about 70%; inactive = the rest.

Solved cases (3 shown):
CC12C(=O)OC(=O)C(c3ccccc31)c1ccccc12: 11% (inactive)
COC(=O)C1=C(C(=O)OC)C(C(=O)OC)C(C(=O)OC)C(C(=O)OC)(C(=O)OC)C(C(=O)OC)=C1C(=O)OC (stereo not given): -17% (inactive)
NNC(=O)CCc1cc2ccccc2c2ccccc12: 18% (inactive)

### Prompt # get_value(readout='growth inhibition', item= NCCNCCNc1ccc(NCCNCCN)c2c1C(=O)c1c(O)ccc(O)c1C2=O )
### Response -3% (inactive)

### Prompt # get_value(readout='growth inhibition', item= C[Si](C)(C)/C=C/CCNC(C#N)c1ccccc1 (stereo not given) )
### Response 39% (inactive)

----------
- ASSAY NAME: NCI Yeast Anticancer Drug Screen. Data for the mlh1 rad18 strain (AID 175)
- RUN CONDITIONS: S. cerevisiae mlh1 rad18 strain growth inhibition; at 5.0 µM (retest, dose inferred, filed as 0.5); active compounds read high
Compounds without any hit were thinned out: in the full panel of roughly 79,000, 15% have a hit.
OBSERVABLE: growth inhibition (%)
Express it in %; write the number only.

### Prompt # get_value(readout='growth inhibition', item= COc1cc(O)c(O)c(C(C)(C)C)c1 )
### Response 20

### Prompt # get_value(readout='growth inhibition', item= O=C(Nc1ccc(Cl)cc1)Nc1nnc2nc(C(C(=O)c3cccc([N+](=O)[O-])c3Cl)c3nc4nnc(NC(=O)Nc5ccc(Cl)cc5)n4[nH]c3=O)c(=O)[nH]n12 )
### Response -20

----------
- ASSAY NAME: NCI Yeast Anticancer Drug Screen. Data for the mgt1 strain (AID 153)
- RUN CONDITIONS: S. cerevisiae mgt1 mutant growth inhibition; at 33.0 µM; active compounds read high
The panel holds about 79,000 compounds, 15% with a hit somewhere; the sample as a whole holds those more often.
OBSERVABLE: growth inhibition (%)
Express it in %; write the number only.

Solved cases (4 shown):
NC(=O)c1c([N+](=O)[O-])cc(C(F)(F)F)cc1[N+](=O)[O-]: 6
CC(C)c1ccc(NC(=S)NC(=O)c2ccccc2)cc1: 52
O=[N+]([O-])c1cc(F)c(F)cc1Sc1cc(F)c(F)cc1[N+](=O)[O-]: 99
Cc1cc(N(CCOS(C)(=O)=O)CCOS(C)(=O)=O)ccc1C=Nc1ccc(-c2nc(Cc3ccccc3)sc2C)cc1: 90

### Prompt # get_value(readout='growth inhibition', item= CSc1nc(C)c(CCOC(C)=O)c(N=P(c2ccccc2)(c2ccccc2)c2ccccc2)n1 )
### Response -15

----------
- ASSAY NAME: NCI Yeast Anticancer Drug Screen. Data for the CLN2oe strain (AID 163);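 note: 0% = growth of vehicle-only control cultures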
- RUN CONDITIONS: S. cerevisiae CLN2oe strain, at 33.0 µM
About 79,000 compounds went through this panel and 15% of them were active in at least one assay; those are over-represented in the sample as a whole. Active and inactive are the calls of the source. Cut-off read from the data, not from the text of the source: active = growth inhibition above about 70%; inactive = the rest.
Assign a class; possible classes are active, inactive

Worked examples follow.
CCOC(=O)C(C(=O)OCC)=P(c1ccccc1)(c1ccccc1)c1ccccc1: inactive
CCCCCOC(=S)SC(=O)OCC: inactive
Cc1c(-c2ccccn2)ccc2ccccc12: inactive
CC(=O)Nc1ccc2c(c1)-c1ccccc1C2=O: inactive
O=C(O)c1ccccc1/C=N/N=C1c2ccccc2-c2ccccc21: inactive
COc1cccc2c1C(=O)c1c(O)c3c(c(O)c1C2=O)CC(O)(C(O)CO)CC3OC1CC(N2CCOCC2)C(O)C(C)O1 (configuration not stated): active
COC(=O)NC1C(C)OC(OC2C/C=C(/C)C3C=CC4C(OC5CC(OC6CC(O)C(OC7CC(O)C(OC)C(C)O7)C(C)O6)C(O)C(C)O5)C(C)CC(C)C4C3(C)/C(O)=C3\C(=O)OC4(CC(C)C(CO)=CC4/C=C\2C)C3=O)CC1(C)[N+](=O)[O-] (configuration not stated): inactive
CC(C)(C)C1=CC(=CC=C2C=CN(CCCCCCCCCCCO)C=C2)C=C(C(C)(C)C)C1=O: active

### Prompt What was the test verdict on CCCCOCn1c(=O)[nH]c(=O)c2cc(Br)ccc21 ?
### Response inactive
